- experimental_system: human activated kallikrein enzyme (Homo sapiens, UniProt P03952)
- Sequence (P03952 391-638 limits assumed): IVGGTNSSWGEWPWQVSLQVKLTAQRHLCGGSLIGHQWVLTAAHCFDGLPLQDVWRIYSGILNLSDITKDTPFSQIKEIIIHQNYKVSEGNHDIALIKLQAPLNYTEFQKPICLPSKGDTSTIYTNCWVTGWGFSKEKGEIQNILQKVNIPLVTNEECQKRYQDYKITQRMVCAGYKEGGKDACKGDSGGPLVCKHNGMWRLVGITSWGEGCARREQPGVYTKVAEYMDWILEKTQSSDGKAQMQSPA
- Sequence (P03952 20-390 partner limits assumed): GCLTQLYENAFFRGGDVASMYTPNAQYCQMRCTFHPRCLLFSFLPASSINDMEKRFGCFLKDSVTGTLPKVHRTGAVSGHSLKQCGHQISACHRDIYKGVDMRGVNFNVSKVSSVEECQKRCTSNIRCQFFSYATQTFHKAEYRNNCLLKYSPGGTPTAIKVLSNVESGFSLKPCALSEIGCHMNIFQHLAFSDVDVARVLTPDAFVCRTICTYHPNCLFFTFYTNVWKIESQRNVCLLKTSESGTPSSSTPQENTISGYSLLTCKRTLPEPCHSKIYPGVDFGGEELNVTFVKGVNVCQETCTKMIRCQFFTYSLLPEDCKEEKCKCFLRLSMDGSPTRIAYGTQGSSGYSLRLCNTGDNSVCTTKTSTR
- protocol_details: Plasma kallikrein inhibition, fluorogenic PFR-AMC substrate, 500 pM activated kallikrein format
- Type: biochemical
- setup_conditions: 500 pM activated kallikrein, 300 uM PFR-AMC, 30 min preincubation, 10 min reaction; read-out: Primary Dose Response Assay: Average EC50
# EC50 per entry

COCc1nc(NC(=O)[C@H]2C[C@@H]2c2nccc(C)n2)cc(N[C@H](C)c2cn3cc(C4(F)CC4)cc(N4CC(=O)N(C)C4=O)c3n2)n1 [Example 439]	< 1 nM

Please look at the following compound next.
Looking for the measured EC50 of O=C(Nc1cc(N2C[C@@H](O)C[C@@H]2c2cn3cc(C4CC4)ccc3n2)ncn1)[C@H]1C[C@@H]1c1cc(Cl)ccn1 (single isomer, unassigned; isomer 1) [Example I-248] , can you help?
1000 to 6000 nM

====

- experimental_system: plasma kallikrein (Homo sapiens, UniProt P03952)
- Construct: from tissue
- Sequence (P03952 391-638 limits assumed): as the sequence (P03952 391-638 limits assumed) above
- Sequence (P03952 20-390 partner limits assumed): as the sequence (P03952 20-390 partner limits assumed) above
- protocol_details: Neat human plasma assay, FXIIa contact pathway-activated, PFR-AMC substrate
- Type: biochemical
- setup_conditions: citrated human plasma 78% final, 10 nM human FXIIa, 100 μM PFR-AMC; read-out: Human Plasma Assay: IC90
Listed molecules paired with reported IC90

See these solved cases before continuing.
Cc1ccnc([C@@H]2C[C@H]2C(=O)Nc2cc(OCc3cn4cc(C5CC5)cc(N5CC(=O)N(C)C5=O)c4n3)ncn2)n1 (racemic)	400 to 1500 nM
O=C1CN(c2cc(C3CC3)cn3cc(CNc4cc(NC(=O)[C@H]5C[C@@H]5c5cc(Cl)ccn5)ncn4)nc23)C(=O)N1	< 400 nM

GET /values?readout=IC90&item= Cc1ccnc([C@H]2C[C@@H]2C(=O)Nc2cc(OCc3cn4cc(C5CC5)cc(N5CC(=O)N(CCN(C)C)C5=O)c4n3)nc(C)n2)n1
< 400 nM

====

// reported pEC50 per item
- experimental_system: human activated kallikrein enzyme (Homo sapiens)
- protocol_details: Plasma kallikrein inhibition, fluorogenic PFR-AMC substrate, 500 pM activated kallikrein format
- Format: biochemical
- setup_conditions: 500 pM activated kallikrein, 300 uM PFR-AMC, 30 min preincubation, 10 min reaction; read-out: Primary Dose Response Assay: Average EC50
pEC50: −log10 of the molar value.

Some molecules with known pEC50 results, for comparison:
CN(C)c1ccc2nc(CNc3cc(NC(=O)[C@H]4C[C@@H]4c4cccc(Cl)c4)ncn3)cn2c1	7.00 to 8.00
Cc1ccnc([C@H]2C[C@@H]2C(=O)Nc2cc(N3C[C@@H](O)C[C@@H]3c3cn4cc(C5CC5)cc(N5CCOC5=O)c4n3)ncn2)n1 (relative stereo)	> 9.00
COC(=O)c1cc(C2CC2)cn2cc(CNc3cc(NC(=O)[C@H]4C[C@@H]4c4cccc(Cl)c4)ncn3)nc12	8.00 to 9.00
CC(C)(O)c1cc(C2CC2)cn2cc(CNc3ccnc(NC(=O)[C@H]4C[C@@H]4c4cc(Cl)ccc4C#N)c3)nc12 (racemic)	> 9.00

What pEC50 value was documented for this molecule, Cc1ccnc([C@H]2C[C@@H]2C(=O)Nc2nc(C)nc(OCc3cn4cc(C5CC5)cc(N5CC(=O)N(C)C5=O)c4n3)n2)n1 ?
> 9.00

Consider the molecule shown here: COc1ccc(CN2C(=O)CN(c3cc(C4CC4)cn4cc(CNc5cc(NC(=O)[C@H]6C[C@@H]6c6cccc(Cl)c6)ncn5)nc34)C2=O)cc1 What is its recorded pEC50?
7.00 to 8.00

Which value of pEC50 has been reported for Cc1ccnc([C@H]2C[C@@H]2C(=O)Nc2cc(NCc3cn4cc(C5CC5)cc(N5CC(=O)N(C6CC6)C5=O)c4n3)ncn2)n1 in the records?
> 9.00
